# Assay target: DRB1*0401 (DR4w4) (Homo sapiens, UniProt P01903+P01911, A100K/A169T/F76Y/I96L/K127E/L162R/M171V/N62H/P40V/Q125Y/R42H/S133A/S149N/S66Y/V115G/V209L/W38E)
# Assay info: HLA class II peptide binding assay, purified HLA
# Setup conditions: Table XIX, DR supermotif peptides; unit not given
Lab note: anything with DR4w4 binding data below 0.03 is marked true; values at 0.03 or higher are marked false.

Completed entries (count: 3):
| Structure as smiles | Class name |
| --- | --- |
| CC[C@H](C)[C@H](N)C(=O)N[C@@H](CCCCN)C(=O)N[C@@H](Cc1c[nH]c2ccccc12)C(=O)N[C@@H](CCSC)C(=O)N[C@@H](C)C(=O)N[C@@H](CC(C)C)C(=O)N[C@@H](CCC(=O)O)C(=O)N[C@@H](CO)C(=O)N[C@H](C(=O)N[C@@H](CC(C)C)C(=O)N[C@@H](CCCNC(=N)N)C(=O)N[C@@H](CCCNC(=N)N)C(=O)N[C@@H](CCCNC(=N)N)C(=O)N[C@@H](Cc1ccccc1)C(=O)N[C@H](C(=O)O)[C@@H](C)O)[C@@H](C)CC | false |
| CC[C@H](C)[C@H](NC(=O)[C@H](CCC(N)=O)NC(=O)[C@H](CCSC)NC(=O)[C@H](CS)NC(=O)[C@H](Cc1c[nH]c2ccccc12)NC(=O)[C@H](CC(N)=O)NC(=O)[C@H](CC(C)C)NC(=O)[C@@H](N)CC(C)C)C(=O)N[C@@H](C)C(=O)N[C@@H](CCCCN)C(=O)NCC(=O)N[C@@H](CCSC)C(=O)N[C@@H](CO)C(=O)N[C@@H](Cc1ccc(O)cc1)C(=O)N[C@@H](CC(C)C)C(=O)O | true |
| CC(C)C[C@H](NC(=O)[C@H](C)NC(=O)[C@H](Cc1ccc(O)cc1)NC(=O)[C@H](CC(N)=O)NC(=O)[C@H](CC(=O)O)NC(=O)[C@H](CCC(=O)O)NC(=O)[C@H](Cc1ccccc1)NC(=O)[C@H](CC(C)C)NC(=O)[C@H](CCC(N)=O)NC(=O)[C@@H](N)[C@@H](C)O)C(=O)N[C@@H](C)C(=O)N[C@H](C(=O)N[C@@H](CC(C)C)C(=O)N[C@@H](CC(=O)O)C(=O)N[C@@H](CC(N)=O)C(=O)O)C(C)C | true |

In the record for `CC[C@H](C)[C@H](NC(=O)[C@H](CCCCN)NC(=O)[C@H](CCCCN)NC(=O)[C@@H](N)CS)C(=O)N[C@@H](Cc1ccccc1)C(=O)NCC(=O)N[C@@H](CO)C(=O)N[C@@H](CC(C)C)C(=O)N[C@@H](C)C(=O)N[C@@H](Cc1ccccc1)C(=O)N[C@@H](CC(C)C)C(=O)N1CCC[C@H]1C(=O)N[C@@H](CCC(=O)O)C(=O)N[C@@H](CO)C(=O)N[C@@H](Cc1ccccc1)C(=O)O` , is DR4w4 binding data less than 0.03?
true

In the record for `CC[C@H](C)[C@H](NC(=O)[C@H](CO)NC(=O)[C@H](CCC(=O)O)NC(=O)[C@H](CC(C)C)NC(=O)[C@H](C)NC(=O)[C@H](CCSC)NC(=O)[C@H](Cc1c[nH]c2ccccc12)NC(=O)[C@H](CCCCN)NC(=O)[C@@H](NC(=O)[C@@H]1CCCN1C(=O)[C@@H](NC(=O)[C@@H](N)CCCCN)C(C)C)[C@@H](C)CC)C(=O)N[C@@H](CC(C)C)C(=O)N[C@@H](CCCNC(=N)N)C(=O)N[C@@H](CCCNC(=N)N)C(=O)O` , is DR4w4 binding data less than 0.03?
false

In the record for `CC[C@H](C)[C@H](NC(=O)CNC(=O)[C@H](Cc1ccccc1)NC(=O)[C@@H](NC(=O)[C@@H](NC(=O)CNC(=O)[C@H](CC(C)C)NC(=O)[C@@H](N)C(C)C)C(C)C)C(C)C)C(=O)N[C@@H](CC(C)C)C(=O)N[C@H](C(=O)N[C@@H](CCCCN)C(=O)N[C@@H](CCCNC(=N)N)C(=O)N[C@@H](CCCNC(=N)N)C(=O)N[C@@H](CCC(N)=O)C(=O)N[C@@H](CCC(N)=O)C(=O)O)[C@@H](C)CC` , is DR4w4 binding data less than 0.03?
true

In the record for `CSCC[C@H](NC(=O)[C@H](CC(C)C)NC(=O)[C@H](CCC(=O)O)NC(=O)[C@H](Cc1c[nH]c2ccccc12)NC(=O)[C@@H](NC(=O)[C@@H](NC(=O)[C@@H](NC(=O)CN)C(C)C)[C@@H](C)O)C(C)C)C(=O)N[C@H](C(=O)N[C@@H](Cc1ccccc1)C(=O)NCC(=O)N[C@@H](C)C(=O)N[C@@H](CCCCN)C(=O)N1CCC[C@H]1C(=O)N[C@@H](Cc1ccc(O)cc1)C(=O)O)[C@@H](C)O` , is DR4w4 binding data less than 0.03?
false

In the record for `CC[C@H](C)[C@H](NC(=O)[C@H](C)NC(=O)[C@@H](NC(=O)[C@@H]1CCCN1C(=O)[C@@H](NC(=O)[C@H](CCCCN)NC(=O)[C@@H](NC(=O)[C@H](CC(N)=O)NC(=O)[C@H](CCC(=O)O)NC(=O)CN)C(C)C)[C@@H](C)CC)C(C)C)C(=O)N[C@@H](CCCCN)C(=O)N[C@H](C(=O)N[C@@H](CC(C)C)C(=O)N[C@@H](CCCNC(=N)N)C(=O)N[C@@H](CCC(=O)O)C(=O)O)C(C)C` , is DR4w4 binding data less than 0.03?
true

In the record for `CSCC[C@H](NC(=O)[C@H](CC(=O)O)NC(=O)[C@@H](NC(=O)CN)[C@@H](C)O)C(=O)N[C@@H](CCCCN)C(=O)N[C@@H](CC(C)C)C(=O)N[C@@H](CCCNC(=N)N)C(=O)N[C@@H](CC(C)C)C(=O)N1CCC[C@H]1C(=O)N[C@@H](C)C(=O)N[C@@H](CO)C(=O)N1CCC[C@H]1C(=O)N[C@@H](CCC(=O)O)C(=O)N[C@H](C(=O)N[C@@H](Cc1c[nH]cn1)C(=O)O)[C@@H](C)O` , is DR4w4 binding data less than 0.03?
true

In the record for `CC(C)C[C@H](NC(=O)[C@H](CO)NC(=O)[C@H](C)NC(=O)[C@H](CC(N)=O)NC(=O)[C@@H](NC(=O)[C@@H]1CCCN1C(=O)[C@H](CC(C)C)NC(=O)[C@H](Cc1ccc(O)cc1)NC(=O)[C@@H](NC(=O)[C@@H](N)CC(C)C)[C@@H](C)O)[C@@H](C)O)C(=O)N[C@@H](CO)C(=O)N[C@@H](Cc1ccccc1)C(=O)N[C@@H](CC(C)C)C(=O)N[C@@H](CCC(N)=O)C(=O)N[C@@H](CC(=O)O)C(=O)O` , is DR4w4 binding data less than 0.03?
false

In the record for `CC[C@H](C)[C@H](NC(=O)[C@@H]1CCCN1C(=O)[C@H](CCSC)NC(=O)[C@H](Cc1ccc(O)cc1)NC(=O)[C@H](CO)NC(=O)[C@H](CC(C)C)NC(=O)[C@H](CC(=O)O)NC(=O)[C@@H]1CCCN1C(=O)[C@@H](N)CCCCN)C(=O)N[C@@H](Cc1c[nH]c2ccccc12)C(=O)N[C@@H](CCCCN)C(=O)N[C@@H](Cc1ccccc1)C(=O)N1CCC[C@H]1C(=O)N[C@@H](CC(=O)O)C(=O)N[C@@H](CCC(=O)O)C(=O)O` , is DR4w4 binding data less than 0.03?
true

* * *

In this section, each of the compounds is paired with its reported pIC50.
# Assay target: HLA-A*0201 (Homo sapiens, UniProt P04439, D140Y/D185E/D98H/E176V/E277Q/G131W/G231S/I119V/I121R/I166T/I218V/L300P/L318F/N151K/N90K/P208A/P217A/Q86G/Q94H/R138H/R169H/T345S)
# Assay type: binding
# Setup conditions: Table XXII, A2 supermotif peptides and analogs
Where a SMILES comes first, the peptide text is derived from it. [ ]: non-standard residue; d: D form. Abu = CC[C@H](N)C(=O)O
pIC50 here: minus log base 10 of the concentration, concentration in moles per litre.

| Compound | Recorded value |
| --- | --- |
| CC[C@H](NC(=O)[C@@H](NC(=O)[C@H](C)N)[C@@H](C)O)C(=O)N[C@@H](CCCNC(=N)N)C(=O)N[C@@H](Cc1c[nH]c2ccccc12)C(=O)NCC(=O)N[C@@H](CC(C)C)C(=O)N[C@@H](CC(C)C)C(=O)N[C@H](C(=O)O)C(C)C [Her2/neu.5.T2B3V9] (H-AT[Abu]RWGLLV-OH) | 4.78 |
| CC[C@H](NC(=O)[C@@H](NC(=O)[C@H](C)N)C(C)C)C(=O)N[C@@H](CCCNC(=N)N)C(=O)N[C@@H](Cc1c[nH]c2ccccc12)C(=O)NCC(=O)N[C@@H](CC(C)C)C(=O)N[C@@H](CC(C)C)C(=O)N[C@H](C(=O)O)C(C)C [Her2/neu.5V2B3V9] (H-AV[Abu]RWGLLV-OH) | 5.00 |
| CC[C@H](NC(=O)[C@H](CCCCN)NC(=O)[C@@H](NC(=O)[C@H](CCSC)NC(=O)[C@@H](NC(=O)[C@H](CC(C)C)NC(=O)[C@@H](N)Cc1ccc(O)cc1)[C@@H](C)CC)C(C)C)C(=O)N[C@@H](Cc1c[nH]c2ccccc12)C(=O)N[C@@H](CCSC)C(=O)N[C@H](C(=O)O)C(C)C [Her2/neu.952L2B7V10] (H-YLIMVK[Abu]WMV-OH) | 8.14 |
| CC[C@H](NC(=O)[C@H](CCSC)NC(=O)[C@H](C)N)C(=O)N[C@@H](CCCNC(=N)N)C(=O)N[C@@H](Cc1c[nH]c2ccccc12)C(=O)NCC(=O)N[C@@H](CC(C)C)C(=O)N[C@@H](CC(C)C)C(=O)N[C@H](C(=O)O)C(C)C [Her2/neu.5M2B3V9] (H-AM[Abu]RWGLLV-OH) | 7.44 |

Attention now turns to another entry.
Consider the compound shown here: CC[C@H](NC(=O)[C@H](CC(C)C)NC(=O)[C@H](C)N)C(=O)N[C@@H](CCCNC(=N)N)C(=O)N[C@@H](Cc1c[nH]c2ccccc12)C(=O)NCC(=O)N[C@@H](CC(C)C)C(=O)N[C@@H](CC(C)C)C(=O)N[C@H](C(=O)O)C(C)C [Her2neu.5B3V9] (H-AL[Abu]RWGLLV-OH) What is its recorded pIC50?
7.74

Where do these numbers come from? They come from patent US20040121946A9.
